System: CAKI-1 renal
Assay: NCI tumour cell line growth inhibition, 48 h; in the data active = GI50 below about 0.43 µM; inactive = the rest
Write down the outcome that applies. Available outcomes: 1 for active, -1 for inactive

Known results for molecules:
molecule: COc1ccc(-c2nc(-c3nc4ccc(OC)cc4[nH]3)c3ccccn23)cc1
target desc: CAKI-1 renal
class assignment: -1

molecule: COc1c(C)c2c(c(O)c1C/C=C(\C)CCC(=O)O)C(=O)OC2
target desc: CAKI-1 renal
class assignment: 1

molecule: COc1ccc(-c2cn(-c3cc(OC)c(OC)c(OC)c3)c(SCc3ccccc3)n2)cc1OC
target desc: CAKI-1 renal
class assignment: -1

INPUT: Field: outcome | Entry: COc1cc([N+](=O)[O-])c(OC)cc1-c1nc2sc(Cl)cn2c1/C(N)=N/C(=N)N
OUTPUT: -1

INPUT: Per the assay record, what outcome was assigned to CCC[CH2][Sn]1([CH2]CCC)[O]C(=O)c2cccnc2[O]1 ?
OUTPUT: -1

INPUT: # fetch the recorded call for COC(=O)c1nc(-c2ccccc2)oc1S(=O)(=O)Cc1ccccc1 here
OUTPUT: -1

INPUT: Recorded call for C=C(C)C(=O)O[C@H]1CC(=C)[C@@H]2C[C@H](O)[C@](O)(CCl)[C@@H]2[C@H]2OC(=O)C(=C)[C@@H]21 ?
OUTPUT: -1

INPUT: Check the results log: what was the call for Fc1ccc2c(c1)C1=NN(c3ccccc3)C(F)C1CO2 (stereo not given) ?
OUTPUT: -1

INPUT: Entry COc1cc(CSc2nc3ccc(C)cc3c(=O)n2-c2ccccc2)cc(OC)c1OC : call = ?
OUTPUT: -1

INPUT: Per the records of this test, what outcome belongs to COc1cc(NC(C)CCCNC2CN3CCC2CC3)c2ncccc2c1 (stereo not given) ?
OUTPUT: -1

====

System: UO-31 renal
Experiment: NCI tumour cell line growth inhibition, 48 h
test readout: TGI (µM)
Express your answer in µM, writing the number without its unit.

molecular string: O=C1/C(=C/c2cccc(Br)c2)CCc2ccccc21
TGI (µM): 26.7
--
molecular string: O=C1/C(=C/c2cccc(F)c2)CCCc2ccccc21
TGI (µM): 29.9

INPUT: Entry under review: O=C(O)c1nc2cc(C(F)(F)F)ccc2nc1Nc1ccc(F)cc1 . Reported TGI?
OUTPUT: 35.8

====

Recorded TGI, one value per entry.
Tested on: SW-620 colon
Experiment: NCI tumour cell line growth inhibition, 48 h

compound: COC(=O)c1ccc(C)cc1CC1Cc2cc(C)ccc2C1=O (stereo unspecified)
test readout: TGI
recorded value: > 100 µM

Please look at the following compound next.
INPUT: Need TGI, item COc1cc2c(c(O)c1OC)-c1c(cc(OC)c(OC)c1OC)CC(C)C(C)C2 (stereo unspecified)
OUTPUT: > 100 µM

====

System: MOLT-4 leukemia
Assay: NCI tumour cell line growth inhibition, 48 h; in the data active = GI50 below about 0.43 µM; inactive = the rest
Answer with one of the outcomes given here: active, inactive

Below, 5 compounds whose answers are already recorded.
compound: Nc1c(C(=O)c2cccc(-c3ccncc3)c2)cnn1-c1ccc(F)cc1F
class assignment: inactive

compound: O=C(CCCCCCCCC(=O)N/N=C\c1ccccc1O)N/N=C\c1ccccc1O
class assignment: active

compound: COc1cc2c(cc1C)NC(=O)/C2=C/c1ccccn1
class assignment: inactive

compound: COc1ccc2nc3cccc([N+](=O)[O-])c3c(NCCCCCC(=O)O)c2c1
class assignment: active

compound: Cc1nn2c(/C=C3\C(=O)Nc4ccc(Cl)cc43)c(C)nc2s1
class assignment: inactive

INPUT: What classification did COc1ccc(-c2c[nH]c(C(=O)O)c2-c2cc(OC)c(OC)c(OC)c2)cc1 end up with in this test?
OUTPUT: inactive

INPUT: GET /call?item= COc1ccc(C(=O)c2cc(OC)c(OC)c(OC)c2)cc1OC(=O)CCl returns the recorded outcome of this test.
OUTPUT: active

INPUT: Which result was noted for this compound in the test: c1ccc2[nH]c(-c3ccc(-c4nccc5c4[nH]c4ccccc45)cc3)nc2c1
OUTPUT: inactive

INPUT: # fetch the recorded call for COc1ccc(C(=O)OC2C(OC3C(O)COC(O[C@H]4C[C@H]5[C@@H]6CC=C7C[C@@H](O)CC[C@]7(C)[C@H]6CC[C@]5(C)[C@H]4[C@H](C)C(=O)CCC(C)C)C3OC(N)=O)OCC(O)C2O)cc1 (some centres undefined) here
OUTPUT: active

====

System: SNB-19 CNS
Assay: NCI tumour cell line growth inhibition, 48 h
test readout: TGI

Take a look at these entries with their results.
compound: Cc1ccc2nc(NC(=O)C(=O)C(C#N)c3nc4ccccc4s3)sc2c1 (stereo unspecified)
TGI: 83.6 µM
--
compound: C=CCNC(=O)NC(=O)CSC1=NNC2(C(=O)N1)c1ccccc1-c1ccccc12
TGI: > 10 µM
--
compound: C[C@]12C=CC(=O)C=C1CC[C@@H]1[C@@H]2CC[C@]2(C)OC(=O)CC[C@@H]12
TGI: > 500 µM

INPUT: Consider the compound shown here: OC(c1ccccc1)(c1ccccc1)c1ccncc1 What is its recorded TGI?
OUTPUT: > 100 µM

INPUT: # input compound: COc1cc2c(c(O)c1OC)-c1c(cc(OC)c(OC)c1OC)CC(C)C(C)C2 (stereo unspecified) ; wanted: its TGI
OUTPUT: > 100 µM

INPUT: TGI for COc1ccc(-c2c(C#N)c(N)n(C3OCC(OC(C)=O)C(OC(C)=O)C3OC(C)=O)c(=S)c2C#N)cc1 (stereo unspecified) ?
OUTPUT: > 100 µM

====

System: A549 NSCLC
Test: NCI tumour cell line growth inhibition, 48 h; in the data active = GI50 below about 0.43 µM; inactive = the rest
# valid calls are 1 for active, 0 for inactive; nothing else

molecule: C=C1C(=O)O[C@H]2[C@H]1CC/C(COC(=O)NCc1cn(C)c3ccccc13)=C\CC[C@@]1(C)O[C@@H]21
class assignment: 0

INPUT: What did this assay record as the result for C#Cc1c(F)ccc2cc(O)cc(-c3ncc4c(N5CC6CCC(C5)N6)nc(OC[C@@]56CCCN5C[C@H](F)C6)nc4c3F)c12 ?
OUTPUT: 0

INPUT: Identify the outcome logged in this assay for the molecule shown: COc1ccc(C(=O)OC2C(OC3C(O)COC(O[C@H]4C[C@H]5[C@@H]6CC=C7C[C@@H](O)CC[C@]7(C)[C@H]6CC[C@]5(C)[C@H]4[C@H](C)C(=O)CCC(C)C)C3OC(N)=O)OCC(O)C2O)cc1 (stereo not given in full)
OUTPUT: 1

INPUT: Hello, I am checking results. What call was entered for CC(C)(C)n1cc(-c2ccnc(NCCCNS(=O)(=O)c3ccc(C(F)(F)F)cc3)c2)c(-c2cccc(O)c2)n1 ?
OUTPUT: 0

====

System: RPMI-8226 leukemia
Assay: NCI tumour cell line growth inhibition, 48 h
test readout: TGI

The following compounds have reported results that may help.
compound: CCc1n[nH]c(=O)n1/N=C/c1c(O)ccc2ccccc12
test readout: TGI
recorded value: > 100 µM
//
compound: CCCCCCCCCCCCCCCCCCNC(=O)C(N)Cc1ccc(OCc2ccccc2)cn1 (stereo unspecified)
test readout: TGI
recorded value: 80.6 µM
//
compound: CC(=O)C(=C(c1ccccc1)c1ccccc1)c1ccccc1
test readout: TGI
recorded value: > 100 µM
//
compound: COc1c(C)c2c(c(O)c1C/C=C(\C)CCC(=O)O)C(=O)OC2
test readout: TGI
recorded value: > 100 µM
//
compound: Cc1cccc(C)c1NC(=O)C(C#N)C1=C(Cl)C(=O)c2ccccc2C1=O (stereo unspecified)
test readout: TGI
recorded value: 53.6 µM

# next compound below
INPUT: What does the record list as TGI for O=C1CCC2C(O)c3cc4c(cc3C(c3ccc5c(c3)OCO5)N12)OCO4 (stereo unspecified) ?
OUTPUT: > 100 µM

====

Test system: HCT-116 colon
Experiment: NCI tumour cell line growth inhibition, 48 h
TGI vs 20 µM: at or above is met, below is not met.

Recorded results for 3 compounds are shown here.
compound: O=C(O)CNC(=O)c1ccc(-c2ccccc2)cc1
class assignment: met
--
compound: CCc1n[nH]c(=O)n1/N=C/c1c(O)ccc2ccccc12
class assignment: met
--
compound: COc1cnc2c(c1)C(=O)c1c-2n(CCCn2ccnc2)c(=O)c2cc(F)ccc12
class assignment: not met

INPUT: Is it the case that COc1ccc(Br)c(N/N=C2\CCCNC2=O)c1 has TGI reaching or exceeding 20 µM?
OUTPUT: met

INPUT: Threshold query (TGI >= 20 µM) on C[N+](C)(C)CC(=O)N/N=C/c1oc(-c2c(O)ccc3ccccc23)c(-c2c(O)ccc3ccccc23)c1[N+](=O)[O-]
OUTPUT: met

INPUT: Decide: is the reported value of TGI for CCOC(=O)P(=O)(O)c1ccc(N(C)Cc2ccccc2)cc1 equal to or greater than 20 µM?
OUTPUT: met

====

Test system: CCRF-CEM leukemia
Test: NCI tumour cell line growth inhibition, 48 h
test readout: TGI

INPUT: // map Nc1ccnc(=O)[nH]1 to recorded TGI (system: CCRF-CEM leukemia)
OUTPUT: > 100 µM

INPUT: Missing value: TGI, CCRF-CEM leukemia, entry Nc1c(C(=O)c2cccc(-c3ccncc3)c2)cnn1-c1ccc(F)cc1F . Fill in?
OUTPUT: > 25 µM

INPUT: Checklist item: TGI tested on CCRF-CEM leukemia, entry O=C(CC(=O)N(C(=O)/C=C\c1ccccc1)c1ccc(Cl)cc1)N1N=C(c2ccccc2)C(N=Nc2cccc([N+](=O)[O-])c2)C1=O (centres undefined) , value?
OUTPUT: 38.5 µM

INPUT: For CCRF-CEM leukemia, provide TGI of O=C(Nc1ccc(Cl)cc1)NS(=O)(=O)c1coc2cc(F)ccc2c1=O please.
OUTPUT: > 100 µM

INPUT: So what TGI did O=S1(=O)N=C(SCc2ccccc2)N(c2ccccc2)c2ccncc21 get with CCRF-CEM leukemia?
OUTPUT: > 100 µM

The measured values listed here are drawn from PubChem BioAssay (NCI).
